- MEASUREMENT PROTOCOL: AMES test (reverse mutagenicity test), strain TA98, with and without S-9
- Format: cell-based
- APPLIED CONDITIONS: s9, TA98, with S9, 1250 μg/plate; read-out: magnification of the total number of the mutant colony to the control
- Protocol: Regarding specimen solutions containing the trisazo compounds (dyes) of the present invention obtained in Examples 1 to 9 and dyes of Comparative Examples 1 to 3, respectively, the total number of the mutant colony was determined using the strain TA98. When the resulting magnification is not more than 2, it is evaluated as "negative". On the other hand, when the resulting magnification is not less than 2, it is evaluated as "positive". […]
Readings of fold induction for the listed compounds
Number only, no unit.

Consider the worked cases shown below.
> print(dat)
                           molecular.string  result
1  CCCCc1ccc(N=Nc2c(S(=O)(=O)O)cc3cc(S(=O)(=O)O)c(N=Nc4ccc(C5(c6ccc(N=Nc7ccc(N(C)C)cc7C(=O)O)cc6)CCCCC5)cc4)c(N)c3c2O)cc1    0.53
2  CCCCc1ccc(N=Nc2c(S(=O)(=O)O)cc3cc(S(=O)(=O)O)c(N=Nc4ccc(C5(c6ccc(N=Nc7ccc(N)cc7O)cc6)CCCCC5)cc4)c(N)c3c2O)cc1    0.63
3  Cc1ccc(N=Nc2c(S(=O)(=O)O)cc3cc(S(=O)(=O)O)c(N=Nc4ccc(C5(c6ccc(N=Nc7ccc(N)cc7O)cc6)CCCCC5)cc4)c(N)c3c2O)cc1    0.68
4  Nc1ccc(N=Nc2ccc(C3(c4ccc(N=Nc5c(S(=O)(=O)O)cc6cc(S(=O)(=O)O)c(N=Nc7ccccc7)c(O)c6c5N)cc4)CCCCC3)cc2)c(O)c1    1.16

Next compound, please.
Which fold induction is listed for CCCCc1ccc(N=Nc2c(S(=O)(=O)O)cc3cc(S(=O)(=O)O)c(N=Nc4ccc(C5(c6ccc(N=Nc7ccc(N(C)C)cc7O)cc6)CCCCC5)cc4)c(N)c3c2O)cc1 ?
0.41

====

# maps each entry to its Solubility Dye(g)/water (100 g)
- MEASUREMENT PROTOCOL: Solubility of dye (Na salt) in water
- Assay type: physicochemical
- Protocol: Evaluation Method of Solubility of Dye A Na salt (2 g) of the resulting dye was dissolved in water (10 g), and the dye solution was filtered and concentrated/dried to determine a solubility (g of dye/100 g of water) of the dye.

// below: answered molecules
MOLECULE	Solubility Dye(g)/water (100 g)
Nc1ccc(N=Nc2ccc(C3(c4ccc(N=Nc5c(S(=O)(=O)O)cc6cc(S(=O)(=O)O)c(N=Nc7ccccc7)c(O)c6c5N)cc4)CCCCC3)cc2)c(O)c1 [Example 4]	15 g of dye/100 g of water
CCCCc1ccc(N=Nc2c(S(=O)(=O)O)cc3cc(S(=O)(=O)O)c(N=Nc4ccc(C5(c6ccc(N=Nc7ccc(N(C)C)cc7C(=O)O)cc6)CCCCC5)cc4)c(N)c3c2O)cc1 [Example 8]	15 g of dye/100 g of water
CC(C)c1ccc(N=Nc2c(S(=O)(=O)O)cc3cc(S(=O)(=O)O)c(N=Nc4ccc(C5(c6ccc(N=Nc7ccc(N)cc7O)cc6)CCCCC5)cc4)c(N)c3c2O)cc1 [Example 5]	13 g of dye/100 g of water
Cc1ccc(N=Nc2c(S(=O)(=O)O)cc3cc(S(=O)(=O)O)c(N=Nc4ccc(C5(c6ccc(N=Nc7ccc(N)cc7O)cc6)CCCCC5)cc4)c(N)c3c2O)cc1 [Example 6]	15 g of dye/100 g of water
Cc1cc(-c2ccc(N=Nc3c(S(=O)(=O)[O-])cc4cc(S(=O)(=O)[O-])c(N=Nc5ccccc5)c(O)c4c3N)c(C)c2)ccc1N=Nc1ccc(N)cc1N.[Na+].[Na+] [Comparative Example 2, C.I. Direct Black 154, reference compound]	20 g of dye/100 g of water

Quick one: Solubility Dye(g)/water (100 g) of CCCCc1ccc(N=Nc2c(S(=O)(=O)O)cc3cc(S(=O)(=O)O)c(N=Nc4ccc(C5(c6ccc(N=Nc7ccc(N)cc7O)cc6)CCCCC5)cc4)c(N)c3c2O)cc1 [Example 1] ?
12 g of dye/100 g of water

Please report the recorded Solubility Dye(g)/water (100 g) for CCCCc1ccc(N=Nc2c(S(=O)(=O)O)cc3cc(S(=O)(=O)O)c(N=Nc4ccc(C5(c6ccc(N=Nc7ccc(O)cc7O)cc6)CCCCC5)cc4)c(N)c3c2O)cc1 [Example 2] .
15 g of dye/100 g of water

What does the data say about its Solubility Dye(g)/water (100 g)? Entry: CCC(C)c1ccc(N=Nc2c(S(=O)(=O)O)cc3cc(S(=O)(=O)O)c(N=Nc4ccc(C5(c6ccc(N=Nc7ccc(N)cc7O)cc6)CCCCC5)cc4)c(N)c3c2O)cc1 (centres unmarked) [Example 3]
12 g of dye/100 g of water
